- experimental_target: hCB1 (Homo sapiens, UniProt P21554)
- Construct: host or cells: CHO-K1 beta-arrestin cells
- Sequence (P21554 whole entry): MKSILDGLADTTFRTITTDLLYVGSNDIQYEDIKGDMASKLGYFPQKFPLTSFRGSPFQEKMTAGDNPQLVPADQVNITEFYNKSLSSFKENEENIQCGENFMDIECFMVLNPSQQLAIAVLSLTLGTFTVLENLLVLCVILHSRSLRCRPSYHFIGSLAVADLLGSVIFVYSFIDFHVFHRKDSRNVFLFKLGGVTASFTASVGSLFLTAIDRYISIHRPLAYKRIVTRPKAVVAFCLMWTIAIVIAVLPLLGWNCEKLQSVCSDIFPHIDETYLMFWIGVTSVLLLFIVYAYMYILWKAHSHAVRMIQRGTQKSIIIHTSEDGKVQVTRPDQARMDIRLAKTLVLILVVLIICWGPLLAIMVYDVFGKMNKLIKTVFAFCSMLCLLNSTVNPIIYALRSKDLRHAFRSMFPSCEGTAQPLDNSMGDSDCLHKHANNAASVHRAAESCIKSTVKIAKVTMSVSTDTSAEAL
- assay_text: functional cAMP assay, hCB1 versus hCB2
- Assay type: cell-based
- study_conditions: cAMP assays
measurement_type: EC50 ratio hCB1/hCB2
Numbers only.

Illustrative cases are given below, each with its answer.
> print(dat)
                                   compound  quantitative.result
1  FCCOc1ccc2ncc(NCCCc3nc(-c4ccc(F)cc4Cl)no3)cc2c1                  563
2  Fc1ccc(-c2noc(CCCNc3cnc4ccc(OC(F)(F)F)cc4c3)n2)c(Cl)c1 [Compound 12, reference compound]                 1300

// moving on: another record for EC50 ratio hCB1/hCB2
GET /value?item= COc1ccc2ncc(NCCCc3nc(-c4ccc(F)cc4Cl)no3)cc2c1 &field=EC50 ratio hCB1/hCB2 returns 430

* * *

Give mCB2 cAMP % eff (efficacy) for every item shown.
- experimental_target: mCB2 (Mus musculus, UniProt P47936)
- Construct: host or cells: CHO-K1 beta-arrestin cells
- Sequence (P47936 whole entry): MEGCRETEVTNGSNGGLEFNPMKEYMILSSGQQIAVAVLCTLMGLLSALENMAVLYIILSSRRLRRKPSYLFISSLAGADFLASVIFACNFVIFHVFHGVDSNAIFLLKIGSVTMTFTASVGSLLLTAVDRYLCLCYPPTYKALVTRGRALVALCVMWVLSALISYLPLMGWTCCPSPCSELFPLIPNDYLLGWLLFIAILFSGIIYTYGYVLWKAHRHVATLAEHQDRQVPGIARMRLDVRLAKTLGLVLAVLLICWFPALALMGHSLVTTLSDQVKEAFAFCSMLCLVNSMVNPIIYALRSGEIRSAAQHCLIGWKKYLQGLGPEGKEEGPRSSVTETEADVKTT
- assay_text: functional cAMP assay, mCB2
- Format: cell-based
- study_conditions: CHO-K1 cells expressing mCB2
One number for each entry, in %.

I need mCB2 cAMP % eff (efficacy) for every entry listed below, if you could help.
1. COc1ccc2ncc(NCCCc3nc(-c4ccc(F)cc4Cl)no3)cc2c1
2. Fc1ccc(-c2noc(CCCNc3cnc4ccc(OC(F)(F)F)cc4c3)n2)c(Cl)c1 [Compound 12, reference compound]
3. CCCCOc1c(OC)ccc2cc(C(=O)NC3CCCCC3)c(=O)[nH]c12 [NE40, reference compound]
4. FCCOc1ccc2ncc(NCCCc3nc(-c4ccc(F)cc4Cl)no3)cc2c1

1. 100
2. 100
3. −128
4. 101

* * *

- experimental_target: hCB2 (Homo sapiens)
- Construct: host or cells: CHO-K1 beta-arrestin cells
- Sequence (P34972 whole entry): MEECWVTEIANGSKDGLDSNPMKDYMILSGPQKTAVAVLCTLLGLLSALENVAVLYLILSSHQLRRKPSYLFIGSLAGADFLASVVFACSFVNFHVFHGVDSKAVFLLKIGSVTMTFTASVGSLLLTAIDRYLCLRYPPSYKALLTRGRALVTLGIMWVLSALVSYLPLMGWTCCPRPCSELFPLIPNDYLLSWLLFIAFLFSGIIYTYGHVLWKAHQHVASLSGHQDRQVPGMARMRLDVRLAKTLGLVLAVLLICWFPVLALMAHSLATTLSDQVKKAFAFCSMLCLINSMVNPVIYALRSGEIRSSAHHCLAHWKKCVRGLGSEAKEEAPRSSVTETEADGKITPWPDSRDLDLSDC
- assay_text: functional cAMP assay, hCB2
- Type: cell-based
- study_conditions: hCB2
measurement_type: functional behaviour in cAMP assay

> print(dat)
                                   compound                    measurement.type    result
1  COc1ccc2ncc(NCCCc3nc(-c4ccc(F)cc4Cl)no3)cc2c1  functional behaviour in cAMP assay  agonists
2  Fc1ccc(-c2noc(CCCNc3cnc4ccc(OC(F)(F)F)cc4c3)n2)c(Cl)c1 [Compound 12, reference compound]  functional behaviour in cAMP assay  agonists
3  FCCOc1ccc2ncc(NCCCc3nc(-c4ccc(F)cc4Cl)no3)cc2c1  functional behaviour in cAMP assay  agonists

* * *

- experimental_target: mCB2 (Mus musculus)
- Construct: host or cells: CHO-K1 beta-arrestin cells
- assay_text: functional cAMP assay, mCB2
- Format: cell-based
measurement_type: pEC50
Numbers only, as −log10 of the molar value.

GET /value?item= COc1ccc2ncc(NCCCc3nc(-c4ccc(F)cc4Cl)no3)cc2c1 [MA2] &field=pEC50 returns 8.70
